Field: IC50. Provide a value for each of the compounds that follow.
# system name: CDK8/cyclin C (Homo sapiens (Human))
# Sequence (P49336 whole entry): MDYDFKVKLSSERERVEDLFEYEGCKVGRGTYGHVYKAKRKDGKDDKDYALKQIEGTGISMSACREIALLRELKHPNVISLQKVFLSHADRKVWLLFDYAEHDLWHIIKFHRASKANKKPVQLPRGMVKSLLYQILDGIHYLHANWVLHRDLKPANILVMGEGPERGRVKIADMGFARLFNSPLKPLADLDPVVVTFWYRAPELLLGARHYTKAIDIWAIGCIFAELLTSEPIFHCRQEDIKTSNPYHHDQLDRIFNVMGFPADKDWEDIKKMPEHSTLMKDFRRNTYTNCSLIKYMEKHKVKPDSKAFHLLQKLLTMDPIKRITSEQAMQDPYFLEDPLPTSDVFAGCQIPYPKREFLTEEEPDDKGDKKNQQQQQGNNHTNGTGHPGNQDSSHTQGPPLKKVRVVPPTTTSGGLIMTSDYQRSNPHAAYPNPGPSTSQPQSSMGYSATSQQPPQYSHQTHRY
# Sequence (P24863 whole entry partner): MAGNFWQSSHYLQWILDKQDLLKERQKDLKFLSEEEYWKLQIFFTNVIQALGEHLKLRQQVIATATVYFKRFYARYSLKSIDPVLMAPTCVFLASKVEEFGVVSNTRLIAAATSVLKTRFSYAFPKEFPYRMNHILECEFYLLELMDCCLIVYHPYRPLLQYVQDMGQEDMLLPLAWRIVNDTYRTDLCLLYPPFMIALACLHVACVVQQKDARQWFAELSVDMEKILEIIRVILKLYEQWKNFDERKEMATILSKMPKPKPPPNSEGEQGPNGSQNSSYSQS
# assay explanation: CDK8 biochemical assay (TR-FRET Kinase Tracer 236 displacement)
# applied conditions: 5 nM CDK8/cyclin C, 10 nM Kinase Tracer 236, 60 min
# Protocol: This assay is used to identify compounds which competitively interact with the binding pocket of the CDK8 kinase. Assay-ready plates (ARPs; Proxiplate-384 PLUS, white, PerkinElmer) with compound solution in 100% DMSO are generated on an Access Labcyte Workstation with the Labcyte Echo 55x. […] The assay runs on a fully automated robotic system. […] After 60 min incubation time the signal is measured in a PerkinElmer Envision HTS Multilabel Reader using the TR-FRET specs from PerkinElmer. […]
Quick note: give the figure in nM, leave out the unit.

Inquiry: What value of IC50 has been recorded for this entry: N[C@H]1CCN(c2ccc(Oc3ccnc4c(F)cncc34)cc2)C1
Reply text: 8.3

Inquiry: What value of IC50 has been recorded for this entry: CN(C)C(=O)Cn1cc(-c2ccc(Oc3ccnc4ccncc34)cc2)cn1
Reply text: 2.6

Inquiry: What value of IC50 has been recorded for this entry: O=C1CCCN1CCOc1ccc(Oc2ccnc3c(F)cncc23)cc1
Reply text: 27

Inquiry: What value of IC50 has been recorded for this entry: c1cc2nccc(Oc3ccc(N4CCCC4)cc3)c2cn1
Reply text: 3.6

Inquiry: What value of IC50 has been recorded for this entry: COCCN(C)C(=O)[C@H]1CCN(c2ccc(Oc3ccnc4c(Cl)cncc34)cc2)C1
Reply text: 1.5

Inquiry: What value of IC50 has been recorded for this entry: Fc1cncc2c(Oc3ccc(N4CCn5ccnc5C4)cc3)ccnc12
Reply text: 16.6

Inquiry: What value of IC50 has been recorded for this entry: CN1CCN(c2ccc(Oc3ccnc4ccncc34)cc2)CC1
Reply text: 11.1

Inquiry: What value of IC50 has been recorded for this entry: CC(=O)N(C)[C@H]1CCN(c2ccc(Oc3ccnc4c(F)cncc34)cc2)C1
Reply text: 1.4
